Experiment: 24-hour equilibrium solubility of DMF in water
Assay type: physicochemical
Conditions: thermodynamic from solid, 50 ° C., 24 hours
Where a name gives a salt, the structure may show the parent alone.
value_kind: solubility at 24 h (µg/mL)

INSERT INTO measurements (compound, value_reported) VALUES
  ('COC(=O)/C=C/C(=O)OC [DMF, dimethyl fumarate]', 5500);

---

Experiment: Solubility of DMF in aqueous media at 37° C.
Format: physicochemical
Details: pH 2 citrate buffer, pH 2, aqueous buffer, thermodynamic from solid, pH 2 Citrate Buffer, pH 1.93, read-out: Solubility
Structures can show the parent of a compound that is named as a salt.
value_kind: solubility at 24 h (µg/mL)

INSERT INTO assay_data (compound, value_reported) VALUES
  ('COC(=O)/C=C/C(=O)OC [DMF, dimethyl fumarate]', 3770);

---

Assay: DMF IV formulation development: solubility in solvents and excipient vehicles
Format: physicochemical
Details: DMSO (pure solvent), organic solvent or mixture
Where a name gives a salt, the structure may show the parent alone.
value_kind: solubility

INSERT INTO results (compound, value_kind, value_reported) VALUES
  ('COC(=O)/C=C/C(=O)OC [DMF, dimethyl fumarate]', 'solubility', '23 to 29 mg/mL');

---

Assay: Solubility of DMF in aqueous media at 37° C.
Format: physicochemical
Conditions: pH 8 borate buffer, pH 8, aqueous buffer, thermodynamic from solid, pH 8 Borate Buffer, pH 5.44, read-out: Solubility
Where a name gives a salt, the structure may show the parent alone.
value_kind: solubility at 24 h (µg/mL)

INSERT INTO results (molecule, unit_of_measure, value_reported) VALUES
  ('COC(=O)/C=C/C(=O)OC [DMF, dimethyl fumarate]', 'µg/mL', 4020);

---

Assay: Solubility of DMF in HPbCD, Captisol, saline and D5W at ambient temperature
Assay type: physicochemical
Details: saline or isotonic, thermodynamic from solid, D5W (5% Dextrose in water), pH 6.32
Counter-ions that a name gives are not always drawn.
value_kind: solubility at 24 h (µg/mL)

INSERT INTO results (molecule, value_kind, value_reported) VALUES
  ('COC(=O)/C=C/C(=O)OC [DMF, dimethyl fumarate]', 'solubility at 24 h', 2390);

---

Assay: Solubility of DMF in aqueous media at 37° C.
Type: physicochemical
Conditions: simulated intestinal fluid (SIF, without pancreatin), pH 1.2, fassgf or other biorelevant, thermodynamic from solid, SIF (without pancreatin), pH 1.20, read-out: Solubility
Counter-ions that a name gives are not always drawn.
value_kind: solubility at 24 h (µg/mL)

INSERT INTO results (compound, value_reported) VALUES
  ('COC(=O)/C=C/C(=O)OC [DMF, dimethyl fumarate]', 3110);

---

Experiment: Solubility of DMF in aqueous media at 37° C.
Format: physicochemical
Conditions: pH 4 citrate buffer, pH 4, aqueous buffer, thermodynamic from solid, pH 4 Citrate Buffer, read-out: Solubility Description
Structures can show the parent of a compound that is named as a salt.
value_kind: solubility at 24 h

INSERT INTO measurements (compound, value_reported) VALUES
  ('COC(=O)/C=C/C(=O)OC [DMF, dimethyl fumarate]', '1000 to 10000 µg/mL');

---

Assay: Solubility of DMF in aqueous media at 37° C.
Type: physicochemical
Conditions: simulated gastric fluid without pepsin, pH 1.2, simulated gastric fluid, thermodynamic from solid, SGF (without pepsin), read-out: Solubility Description
Structures can show the parent of a compound that is named as a salt.
value_kind: solubility at 24 h

INSERT INTO assay_data (compound, value_reported) VALUES
  ('COC(=O)/C=C/C(=O)OC [DMF, dimethyl fumarate]', '1000 to 10000 µg/mL');

---

Test: 24-hour equilibrium solubility of DMF in water
Assay type: physicochemical
Conditions: thermodynamic from solid, 20 ° C., 24 hours
Where a name gives a salt, the structure may show the parent alone.
value_kind: solubility at 24 h (µg/mL)

INSERT INTO measurements (molecule, value_kind, unit_of_measure, value_reported) VALUES
  ('COC(=O)/C=C/C(=O)OC [DMF, dimethyl fumarate]', 'solubility at 24 h', 'µg/mL', 2700);

---

Experiment: Solubility of DMF in aqueous media at 37° C.
Format: physicochemical
Settings: pH 10 borate buffer, pH 10, aqueous buffer, thermodynamic from solid, pH 10 Borate Buffer, pH 5.49, read-out: Solubility
Where a name gives a salt, the structure may show the parent alone.
value_kind: solubility at 24 h (µg/mL)

INSERT INTO assay_data (compound, value_kind, value_reported) VALUES
  ('COC(=O)/C=C/C(=O)OC [DMF, dimethyl fumarate]', 'solubility at 24 h', 3570);

---

Experiment: DMF IV formulation development: solubility in solvents and excipient vehicles
Type: physicochemical
Conditions: ethanol, organic solvent or mixture
Counter-ions that a name gives are not always drawn.
value_kind: solubility

INSERT INTO assay_data (molecule, value_reported) VALUES
  ('COC(=O)/C=C/C(=O)OC [DMF, dimethyl fumarate]', '< 20 mg/mL');

---

Experiment: Solubility of DMF in HPbCD, Captisol, saline and D5W at ambient temperature
Type: physicochemical
Conditions: pH 4.8, aqueous with cosolvent or surfactant or cyclodextrin, thermodynamic from solid, 5% Captisol, pH 4.80
Structures can show the parent of a compound that is named as a salt.
value_kind: solubility at 24 h

INSERT INTO measurements (compound, value_reported) VALUES
  ('COC(=O)/C=C/C(=O)OC [DMF, dimethyl fumarate]', '3180 µg/mL');

---

Test: 24-hour equilibrium solubility of DMF in water
Type: physicochemical
Details: thermodynamic from solid, 35 ° C., 24 hours
Where a name gives a salt, the structure may show the parent alone.
value_kind: solubility at 24 h (µg/mL)

INSERT INTO results (compound, unit_of_measure, value_reported) VALUES
  ('COC(=O)/C=C/C(=O)OC [DMF, dimethyl fumarate]', 'µg/mL', 3500);

---

Assay: DMF IV formulation development: solubility in solvents and excipient vehicles
Type: physicochemical
Conditions: PEG400, organic solvent or mixture
Where a name gives a salt, the structure may show the parent alone.
value_kind: solubility

INSERT INTO results (compound, value_reported) VALUES
  ('COC(=O)/C=C/C(=O)OC [DMF, dimethyl fumarate]', '38 to 46 mg/mL');

---

Test: Solubility of DMF in aqueous media at 37° C.
Assay type: physicochemical
Settings: pH 6 citrate buffer, pH 6, aqueous buffer, thermodynamic from solid, pH 6 Citrate Buffer, read-out: Solubility Description
Where a name gives a salt, the structure may show the parent alone.
value_kind: solubility at 24 h

INSERT INTO assay_data (molecule, value_kind, value_reported) VALUES
  ('COC(=O)/C=C/C(=O)OC [DMF, dimethyl fumarate]', 'solubility at 24 h', '1000 to 10000 µg/mL');

---

Test: Solubility of DMF in aqueous media at 37° C.
Format: physicochemical
Conditions: pH 2 citrate buffer, pH 2, aqueous buffer, thermodynamic from solid, pH 2 Citrate Buffer, read-out: Solubility Description
Structures can show the parent of a compound that is named as a salt.
value_kind: solubility at 24 h

INSERT INTO assay_data (compound, value_reported) VALUES
  ('COC(=O)/C=C/C(=O)OC [DMF, dimethyl fumarate]', '1000 to 10000 µg/mL');

---

Test: Solubility of DMF in aqueous media at 37° C.
Assay type: physicochemical
Details: pH 4 citrate buffer, pH 4, aqueous buffer, thermodynamic from solid, pH 4 Citrate Buffer, pH 3.89, read-out: Solubility
Counter-ions that a name gives are not always drawn.
value_kind: solubility at 24 h (µg/mL)

INSERT INTO assay_data (molecule, value_reported) VALUES
  ('COC(=O)/C=C/C(=O)OC [DMF, dimethyl fumarate]', 3320);

---

Test: Solubility of DMF in HPbCD, Captisol, saline and D5W at ambient temperature
Format: physicochemical
Settings: aqueous with cosolvent or surfactant or cyclodextrin, thermodynamic from solid, 40% Captisol, pH 4.42
Where a name gives a salt, the structure may show the parent alone.
value_kind: solubility at 24 h (µg/mL)

INSERT INTO measurements (compound, value_kind, value_reported) VALUES
  ('COC(=O)/C=C/C(=O)OC [DMF, dimethyl fumarate]', 'solubility at 24 h', 7900);

---

Assay: Solubility of DMF in 20% Captisol
Assay type: physicochemical
Details: aqueous with cosolvent or surfactant or cyclodextrin, thermodynamic from solid, room temperature (heated at 50° C., cooled, filtered)
Where a name gives a salt, the structure may show the parent alone.
value_kind: solubility (µg/mL)

INSERT INTO results (compound, value_reported) VALUES
  ('COC(=O)/C=C/C(=O)OC [DMF, dimethyl fumarate]', 4110);
